- target: 5-HT2B receptor (Homo sapiens)
- Sequence (P41595 whole entry): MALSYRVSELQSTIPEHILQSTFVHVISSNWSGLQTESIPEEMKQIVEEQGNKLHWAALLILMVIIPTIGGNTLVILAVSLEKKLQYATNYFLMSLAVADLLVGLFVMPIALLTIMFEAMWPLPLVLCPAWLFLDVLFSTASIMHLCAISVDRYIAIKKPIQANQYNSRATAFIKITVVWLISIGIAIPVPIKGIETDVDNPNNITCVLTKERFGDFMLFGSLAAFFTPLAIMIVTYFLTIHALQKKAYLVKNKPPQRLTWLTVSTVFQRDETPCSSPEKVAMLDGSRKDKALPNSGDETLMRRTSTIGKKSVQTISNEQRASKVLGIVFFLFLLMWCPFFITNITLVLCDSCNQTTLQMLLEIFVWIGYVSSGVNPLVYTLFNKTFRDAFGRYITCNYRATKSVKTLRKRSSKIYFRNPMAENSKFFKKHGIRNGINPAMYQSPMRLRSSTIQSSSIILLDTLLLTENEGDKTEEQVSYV
- protocol-details: 5-HT2B activity, antagonist
- Type: cell-based
Record Met whenever inhibition at 1 µM is at 20% or higher; record Not met when lower.

{"molecule": "CC1NCCOC1(O)c1cccc(F)c1 (centres unmarked)", "label": "Not met"}
{"molecule": "C[C@H]1NCCOC1c1cccc(Cl)c1 (stereo in doubt)", "label": "Met"}
{"molecule": "C[C@H]1NCCO[C@@H]1c1ccccc1 [PAL56, (+)-phenmetrazine, reference compound]", "label": "Met"}
{"molecule": "CC1NCCOC1(O)c1cccc(Cl)c1 (centres unmarked)", "label": "Not met"}
{"molecule": "CC1NCCOC1c1cccc(F)c1 (centres unmarked)", "label": "Not met"}
{"molecule": "CC1NCCOC1(O)c1ccccc1 (centres unmarked)", "label": "Not met"}
{"molecule": "c1ccc(C2CNCCO2)cc1 (centres unmarked)", "label": "Not met"}
{"molecule": "Cc1cccc(C2(O)OCCNC2C)c1 (centres unmarked)", "label": "Not met"}

Values were extracted from patent US9617229B2.
